target: CYP 2D6 (Homo sapiens, UniProt P10635); construct: pooled human liver microsomes (Corning, Xenotech, or other qualified vendors; pooled from multiple donors); tissue Corning, Xenotech, or other qualified vendors; host or cells: pooled human liver microsomes; test: microsomal CYP inhibition, 2D6; assay type: in vitro ADME; details: human liver microsomes 0.2 mg/ml, substrate Dextromethorphan
Sequence (P10635 whole entry): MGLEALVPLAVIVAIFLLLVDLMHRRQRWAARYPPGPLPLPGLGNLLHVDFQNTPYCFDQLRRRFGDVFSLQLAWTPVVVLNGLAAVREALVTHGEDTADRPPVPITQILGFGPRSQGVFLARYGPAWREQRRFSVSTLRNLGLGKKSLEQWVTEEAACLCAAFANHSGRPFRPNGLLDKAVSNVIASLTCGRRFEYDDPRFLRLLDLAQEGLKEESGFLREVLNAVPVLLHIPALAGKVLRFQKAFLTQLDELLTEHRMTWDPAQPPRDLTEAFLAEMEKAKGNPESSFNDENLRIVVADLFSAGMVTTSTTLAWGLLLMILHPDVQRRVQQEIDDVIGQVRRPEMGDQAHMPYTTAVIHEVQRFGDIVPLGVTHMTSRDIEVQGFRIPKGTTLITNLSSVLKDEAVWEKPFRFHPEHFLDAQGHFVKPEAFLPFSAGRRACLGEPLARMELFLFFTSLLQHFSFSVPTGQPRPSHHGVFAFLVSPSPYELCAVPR
endpoint: IC50 (µM)
Answer with a number only, understood to be in µM.

Q: Consider the compound `COCC[S@@+]([O-])c1sc2nc(-c3cnc4nn(C)nc4c3)cc(C(C)(C)C)c2c1N` . State its measured IC50.
Result: 29

---

test: in vitro microsome metabolic stability, mouse (MLM); format: in vitro ADME; details: pooled CD-1 mouse liver microsomes, pH 7.4; CD-1 mouse liver microsomes 0.5 mg/mL, 1 μM compound, NADPH, 37° C.; read-out: MLM (T1/2, min)
endpoint: half-life at 1 μM (min)
Kindly answer with a numeric value in min, unit omitted.

Q: Read off the recorded half-life at 1 μM for `COCC[S@@+]([O-])c1sc2nc(-c3cnc4nn(C)nc4c3)cc(C(C)(C)C)c2c1N`
Result: 86

---

Measured IC50 accompanies every entry in the list below.
molecular target: recombinant 15-PGDH (Homo sapiens, UniProt P15428); test: inhibition of enzymatic activity of recombinant 15-PGDH in vitro; details: recombinant human 15-PGDH
Sequence (P15428 whole entry): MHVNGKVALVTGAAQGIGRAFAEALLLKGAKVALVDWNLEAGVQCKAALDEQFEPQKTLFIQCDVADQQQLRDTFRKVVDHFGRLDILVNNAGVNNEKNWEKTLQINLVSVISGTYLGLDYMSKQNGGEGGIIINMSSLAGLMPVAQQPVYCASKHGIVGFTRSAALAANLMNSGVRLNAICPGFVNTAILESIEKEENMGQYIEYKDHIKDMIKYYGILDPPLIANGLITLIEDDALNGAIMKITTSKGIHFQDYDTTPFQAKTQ

Some compounds with known IC50 results, for comparison:
Cn1nccc1-c1cc(-c2cnc3ncccc3c2)nc2sc([S@+]([O-])C3CCC3)c(N)c12 (stereo in doubt) [Compound 26]: < 2.5 nM
COCC[S@@+]([O-])c1sc2nc(-c3cnc4nn(C)cc4c3)c(C#N)c(-c3ccccc3)c2c1N [Compound 9]: < 2.5 nM
COCC[S@@+]([O-])c1sc2nc(-c3ccc4nccnc4c3)cc(-c3ccnn3C)c2c1N [Compound 4]: < 2.5 nM
Cn1nccc1-c1cc(-c2cnc3ncccc3c2)nc2sc([S+]([O-])C3CCC3)c(N)c12 (centres unmarked) [Compound 12]: < 2.5 nM

Q: In one line, give reported IC50 of the entry COCC[S+]([O-])c1sc2nc(-c3cnc4nccnc4c3)cc(C3CCC3)c2c1N (centres unmarked) [Compound 7] .
Result: < 2.5 nM
